- Test system: NCI-H23 lung
- method notes: NCI tumour cell line growth inhibition, 48 h
readout: TGI

Consider the following illustrative entries.
> print(dat)
                                   compound  recorded.measurement
1  O=C1CCC(c2nc3ccccc3o2)C(=O)N1 (centres undefined)              > 100 µM
2  O=C(CNC(=O)c1cccc2ccccc12)Nc1ccccc1Oc1cccc(O)c1               > 25 µM

## Task Consider the compound O=C(CCN(CCO)CCO)Nc1ccc2c(c1)C(=O)c1ccc(NC(=O)CCN(CCO)CCO)cc1C2=O and give its measured TGI.
## Result > 100 µM

## Task What TGI value was documented for this compound, CNC(=O)c1cc(Oc2ccc3nc(NC(=O)Nc4ccc(Cl)c(Cl)c4)sc3c2)ccn1 ?
## Result > 100 µM
